Examples of molecules with documented Ki follow.
Target: Recombinant human soluble BACE1 catalytic domain (Homo sapiens (Human), UniProt P56817)
Sequence (P56817 75-416): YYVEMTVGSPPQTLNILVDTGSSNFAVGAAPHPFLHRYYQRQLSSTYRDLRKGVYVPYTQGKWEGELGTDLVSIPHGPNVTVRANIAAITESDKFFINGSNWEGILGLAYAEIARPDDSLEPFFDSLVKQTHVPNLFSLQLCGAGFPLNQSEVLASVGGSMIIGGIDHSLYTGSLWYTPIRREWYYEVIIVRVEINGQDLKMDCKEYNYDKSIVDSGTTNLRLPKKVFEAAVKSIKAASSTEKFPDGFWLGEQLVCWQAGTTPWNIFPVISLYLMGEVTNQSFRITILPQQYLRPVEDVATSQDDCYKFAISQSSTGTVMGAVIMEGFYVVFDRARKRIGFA
Assay: BACE1 HTRF FRET Assay
Details: Ki calculated from IC50 using the Cheng-Prusoff equation; QSY7-APPswe-Eu substrate, pH 5.0; read-out: BACE-1 Ki
Source text: Reagents: Na^+-Acetate pH 5.0; 1% Brij-35; Glycerol; Dimethyl Sulfoxide (DMSO); Recombinant human soluble BACE1 catalytic domain (>95% pure); APP Swedish mutant peptide substrate (QSY7-APP^swe-Eu): QSY7-EISEVNLDAEFC-Europium-amide. A homogeneous time-resolved FRET assay can be used to determine IC50 values for inhibitors of the soluble human BACE1 catalytic domain. […] Inhibition of BACE1 cleavage of the QSY7-APP^swe-Eu substrate by inhibitors is manifested as a suppression of 620 nm fluorescence. […]
measured endpoint: Ki (nM)

>>> obs_value("C[C@H]1C[C@@H]2[C@](c3cc(OCC4CC4)ccc3F)(CO1)NC(=N)C(C)(C)S2(=O)=O [Example 9]")
94.2
>>> obs_value("CC1(C)C(=N)N[C@@]2(c3cc(OCC4CC4)ccc3F)CO[C@@H](c3ccc(F)cc3)C[C@H]2S1(=O)=O [Example 13]")
115
>>> obs_value("COc1ccc(F)c([C@]23CO[C@@H](c4ccc(F)cc4)C[C@H]2S(=O)(=O)C(C)(C)C(=N)N3)c1 [Example 12]")
184
>>> obs_value("C[C@H]1C[C@@H]2[C@](c3cc(Oc4ncccc4F)ccc3F)(CO1)NC(=N)C(C)(C)S2(=O)=O [Example 5]")
17.5
>>> obs_value("CC1(C)C[C@@H]2[C@](c3cc(Oc4cc(C#N)ccn4)ccc3F)(CO1)NC(=N)C(C)(C)S2(=O)=O [Example 19]")
33.8
>>> obs_value("C[C@@H]1C[C@@H]2[C@](c3cc(OCC4CC4)ccc3F)(CO1)NC(=N)C(C)(C)S2(=O)=O [Example 8]")
4480
>>> obs_value("CC1(C)C[C@@H]2[C@](c3cc(OCC4CC4)ccc3F)(CO1)NC(=N)C(C)(C)S2(=O)=O [Example 22]")
120
>>> obs_value("CC(C)[C@H]1C[C@@H]2[C@](c3ccccc3F)(CO1)NC(=N)C(C)(C)S2(=O)=O [Example 25]")
185

Where do these numbers come from? They come from patent US10689401B2.
